Every entry's value here was drawn from ChEMBL document CHEMBL4118269.

# experimental system: Lanosterol 14-alpha demethylase (Candida albicans (strain SC5314 / ATCC MYA-2876) (Yeast), UniProt P10613)
# Sequence (P10613 whole entry): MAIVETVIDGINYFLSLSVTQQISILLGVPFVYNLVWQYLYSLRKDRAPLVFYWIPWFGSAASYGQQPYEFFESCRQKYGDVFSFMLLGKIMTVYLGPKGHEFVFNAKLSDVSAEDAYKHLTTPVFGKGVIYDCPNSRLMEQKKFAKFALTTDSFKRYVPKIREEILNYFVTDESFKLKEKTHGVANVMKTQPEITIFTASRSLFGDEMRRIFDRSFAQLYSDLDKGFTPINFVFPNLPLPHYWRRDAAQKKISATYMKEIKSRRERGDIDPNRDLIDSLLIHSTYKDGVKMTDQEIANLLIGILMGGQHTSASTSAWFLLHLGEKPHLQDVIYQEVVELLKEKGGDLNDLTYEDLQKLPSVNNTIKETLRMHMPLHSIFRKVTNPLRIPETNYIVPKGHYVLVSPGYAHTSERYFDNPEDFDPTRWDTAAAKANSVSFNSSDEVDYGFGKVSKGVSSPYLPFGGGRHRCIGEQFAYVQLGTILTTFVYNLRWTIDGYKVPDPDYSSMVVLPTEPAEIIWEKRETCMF
# test: Inhibition of Candida albicans CYP51 assessed as reduction in [3-3H]lanosterol 14alpha-demethylation at 0.75 uM preincubated for 60 secs followed by NADPH addition measured after 60 mins by RP-HPLC analysis relative to control
# experimental parameters: 1 h
readout type: inhibition at 0.75 µM

// inhibition at 0.75 µM value for `CC[C@@H]([C@H](C)O)n1ncn(-c2ccc(N3CCN(c4ccc(OC[C@@H]5CO[C@@](Cn6cncn6)(c6ccc(F)cc6F)C5)cc4)CC3)cc2)c1=O` : 98%

Please fill in: inhibition at 0.75 µM reported for `O=C(N[C@@H](Cn1ccnc1)c1ccc(Cl)cc1Cl)c1ccc(-c2nnc(-c3cc(F)cc(-c4ncncc4F)c3)o2)cc1` = 92%

Reported inhibition at 0.75 µM ( `O=C(N[C@@H](Cn1ccnc1)c1ccc(Cl)cc1Cl)c1ccc(-c2nnc(-c3cccc(Br)c3)o2)cc1` ) = 84%

Please fill in: inhibition at 0.75 µM reported for `O=C(N[C@@H](Cn1ccnc1)c1ccc(Cl)cc1Cl)c1ccc(-c2nnc(-c3ccc(Cl)c(Cl)c3)o2)cc1` = 92%

The recorded inhibition at 0.75 µM for `O=C(N[C@@H](Cn1ccnc1)c1ccc(Cl)cc1Cl)c1ccc(-c2nnc(-c3cccc(N4CCOCC4)c3)o2)cc1` is 58%

For `O=C(N[C@@H](Cn1ccnc1)c1ccc(Cl)cc1Cl)c1ccc(-c2nnc(-c3cc(F)cc(OCC(F)(F)F)c3)o2)cc1` the molecule record lists inhibition at 0.75 µM as 65%

The measured inhibition at 0.75 µM associated with `O=C(N[C@@H](Cn1ccnc1)c1ccc(Cl)cc1Cl)c1ccc(-c2nnc(-c3ccc(N4CCOCC4)cc3)o2)cc1` reads 29%

###

# test: in vitro
# experimental parameters: CD-1, mouse, liver microsomes
readout type: CLhep predicted at 0.75 h, 1 µM (mL/min/kg)
Numeric only. Scale: mL/min/kg

Briefly, CLhep predicted at 0.75 h, 1 µM measured for `CS(=O)(=O)c1ccc(-c2nnc(-c3ccc(C(=O)N[C@@H](Cn4ccnc4)c4ccc(Cl)cc4Cl)cc3)o2)cc1Cl` : 34.5

Record `O=C(N[C@@H](Cn1ccnc1)c1ccc(Cl)cc1Cl)c1ccc(-c2nnc(-c3cc(F)cc(OCC(F)(F)F)c3)o2)cc1` . Reported CLhep predicted at 0.75 h, 1 µM: 43.6

Entry `O=C(N[C@@H](Cn1ccnc1)c1ccc(Cl)cc1Cl)c1ccc(-c2nnc(-c3ccc(-c4ccccn4)cc3)o2)cc1` — recorded CLhep predicted at 0.75 h, 1 µM = 46

Please fill in: CLhep predicted at 0.75 h, 1 µM reported for `O=C(N[C@@H](Cn1ccnc1)c1ccc(Cl)cc1Cl)c1ccc(-c2nnc(-c3ccc(-c4ccccn4)cc3F)o2)cc1` = 26

Value of CLhep predicted at 0.75 h, 1 µM reported for the compound `O=C(N[C@@H](Cn1ccnc1)c1ccc(Cl)cc1Cl)c1ccc(-c2nnc(-c3ccc(C(F)(F)F)c(F)c3)o2)cc1` is 36

Value of measured CLhep predicted at 0.75 h, 1 µM for the entry `O=C(N[C@@H](Cn1ccnc1)c1ccc(Cl)cc1Cl)c1ccc(-c2nnc(-c3ccccc3)o2)cc1` : 44

The value of CLhep predicted at 0.75 h, 1 µM measured for the compound `O=C(N[C@@H](Cn1ccnc1)c1ccc(Cl)cc1Cl)c1ccc(-c2nnc(-c3cc(F)cc(-c4ccccn4)c3)o2)cc1` turned out to be 34

Reported CLhep predicted at 0.75 h, 1 µM for `O=C(N[C@@H](Cn1ccnc1)c1ccc(Cl)cc1Cl)c1ccc(-c2nnc(-c3cc(-c4ccccn4)ccc3F)o2)cc1` was 65

`O=C(N[C@@H](Cn1ccnc1)c1ccc(Cl)cc1Cl)c1ccc(-c2nnc(-c3ccc(F)c(F)c3)o2)cc1` has a reported CLhep predicted at 0.75 h, 1 µM of 34

`O=C(N[C@@H](Cn1ccnc1)c1ccc(Cl)cc1Cl)c1ccc(-c2nnc(-c3cc(F)cc(-c4ncncc4F)c3)o2)cc1` yielded CLhep predicted at 0.75 h, 1 µM of 48.3

Noted for `O=C(N[C@@H](Cn1ccnc1)c1ccc(Cl)cc1Cl)c1ccc(-c2nnc(-c3ccc(Cl)c(Cl)c3)o2)cc1` : its CLhep predicted at 0.75 h, 1 µM reads 49

# CLhep predicted at 0.75 h, 1 µM of `O=C(N[C@@H](Cn1ccnc1)c1ccc(Cl)cc1Cl)c1ccc(-c2nnc(-c3cccc(-c4ccccn4)c3)o2)cc1` = 56

# CLhep predicted at 0.75 h, 1 µM of `O=C(N[C@@H](Cn1ccnc1)c1ccc(Cl)cc1Cl)c1ccc(-c2nnc(-c3ccc(OCC(F)(F)F)cc3F)o2)cc1` = 44

# CLhep predicted at 0.75 h, 1 µM (compound: `O=C(N[C@@H](Cn1ccnc1)c1ccc(Cl)cc1Cl)c1ccc(-c2nnc(-c3cccc(Br)c3)o2)cc1` ) is 55
